Target: T1, S15-extra cellular domain (ECD) monomer (human, UniProt Q6ZMC9 20-263)
T1 construct: also called S15 monomer protein
T1 sequence: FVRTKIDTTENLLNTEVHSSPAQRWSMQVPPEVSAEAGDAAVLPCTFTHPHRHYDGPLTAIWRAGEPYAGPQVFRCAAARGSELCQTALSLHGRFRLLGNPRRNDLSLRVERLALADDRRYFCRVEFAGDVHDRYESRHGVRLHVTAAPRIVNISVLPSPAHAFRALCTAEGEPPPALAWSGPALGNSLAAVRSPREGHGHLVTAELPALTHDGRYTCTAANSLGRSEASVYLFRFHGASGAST
Assay: BLI (Octet RED96), mAb on anti-human Fc sensors, S15-ECD monomer in solution, global fit
Measured koff accompanies every entry in the list below.
Hi! Could you send only the number? It should be in s⁻¹, unit omitted.

binder="6F8 (antibody, V domains shown, Mouse anti-human Siglec-15 mAb) VH: QVQLKQSGPELVRPGASVKISCEASGYTFTDYYVNWVKQRPGRGLEWIGKIGPGSVSIYYNEKFKDKATLTADKSSSTAYMQLSGLTSEDSAVYFCASYYYGFAYWGQGTLVTVSA VL: DIVMTQAAPSVPVTPGESVSISCRSSKSLLHSNGNTYLYWFLQRPGQSPQLLIYRMSNLASGVPDRFGGSGSGTAFTLRISRVEAEDVGVYYCMQHLEYPYTFGGGTKLEIKR" observed_measurement=0.000134

QUERY: Report koff, nothing else, for this binder: 1C12 (antibody, V domains shown, Mouse anti-human Siglec-15 mAb) VH: EVQLVESGGGLVKPGGSLKLSCAASGFSFSDYGMHWVRQAPEKGLEWVAYISSGSSILYYADIVKGRFTISRDNAKNTLFLQMTSLRSEDTAMYYCARDHYHGNGSDYWGQGTTLTVSS VL: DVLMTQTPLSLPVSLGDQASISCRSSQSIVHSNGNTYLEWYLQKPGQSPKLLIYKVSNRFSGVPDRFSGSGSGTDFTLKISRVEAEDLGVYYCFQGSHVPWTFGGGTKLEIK
RESULT: 0.000423
